A compilation of published pIC50 results with PDE1B (Homo sapiens (Human)).
Sequence (Q01064 whole entry): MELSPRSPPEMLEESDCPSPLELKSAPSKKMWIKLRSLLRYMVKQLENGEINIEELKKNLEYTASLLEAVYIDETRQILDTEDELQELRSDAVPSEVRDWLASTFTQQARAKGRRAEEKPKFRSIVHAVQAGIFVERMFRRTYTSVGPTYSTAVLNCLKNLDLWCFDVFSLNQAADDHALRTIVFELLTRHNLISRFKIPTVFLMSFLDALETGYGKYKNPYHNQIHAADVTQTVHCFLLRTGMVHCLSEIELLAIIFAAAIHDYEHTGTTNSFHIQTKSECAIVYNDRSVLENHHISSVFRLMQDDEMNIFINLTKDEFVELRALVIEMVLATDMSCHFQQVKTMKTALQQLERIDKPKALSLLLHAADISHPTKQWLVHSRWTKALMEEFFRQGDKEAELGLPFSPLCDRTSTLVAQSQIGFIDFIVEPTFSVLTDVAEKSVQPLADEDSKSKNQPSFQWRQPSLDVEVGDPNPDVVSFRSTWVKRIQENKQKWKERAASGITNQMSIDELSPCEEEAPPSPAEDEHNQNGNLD
Answers are plain numbers, as −log10 of the molar value.

> print(dat)
                                   compound  quantity.measured  result.number
1  Cc1ccc(Cc2nn3c(C4CCOCC4)ncc3c(=O)n2CC2CCC2)cc1              pIC50           6.99
2           O=c1c2cnc(C3CC3)n2ccn1CC1CCCCC1              pIC50           7.17
3  CCOc1nccc(C)c1-c1cc(N[C@@H]2CCOC2)c2c(cnn2C(C)C)n1              pIC50           6.80

Quick one: give me pIC50 for each item below, same order please.
1. Cn1c(Cc2ccc(-c3ccccn3)cc2)nc2c(cnn2C2CCOCC2)c1=O
2. COc1ccc2c(NC3(C)CCOC3)ncnc2c1OC (stereo not drawn)
3. CCOc1ncccc1-c1cc(N2CCCC2)c2c(cnn2C2COC2)n1

[7.04, 7.21, 7.02]
